Consider the following compounds; for each one, report its Inhibitory Activity.
- Test system: Rat 5α-Reductase
- assay-explanation: Rat 5α-Reductase Inhibition Test
- Type: biochemical, rat (Sprague-Dawley, ventral prostate)
- experimental-parameters: final concentration of test compound 10^-8 M; 1 μM [14C]-testosterone; pH 6.5; 37° C., 15 to 30 minutes
Numeric answer only, unit % assumed.

Inhibitory Activity reading for C[C@]12CC[C@H]3[C@@H](CC=C4C=C(C(=O)O)CC[C@@]43C)[C@@H]1CC[C@@H]2C(=O)NC(Cc1ccccc1)c1ccccc1 (stereo partly shown) : 89.4

Inhibitory Activity reading for COc1ccc(C(C)(C)NC(=O)[C@H]2CC[C@H]3[C@@H]4CC=C5C=C(C(=O)O)CC[C@]5(C)[C@H]4CC[C@]23C)cc1OC : 70.3

Inhibitory Activity reading for C[C@]12CC[C@H]3[C@@H](CC=C4C=C(C(=O)O)CC[C@@]43C)[C@@H]1CC[C@@H]2C(=O)NC(c1ccccc1)c1ccc(O)cc1 (stereo partly shown) : 73.3

Inhibitory Activity reading for CCOc1ccc(C(C)(C)NC(=O)[C@H]2CC[C@H]3[C@@H]4CC=C5C=C(C(=O)O)CC[C@]5(C)[C@H]4CC[C@]23C)cc1 : 84.3

Inhibitory Activity reading for COc1ccc(C(C)(C)NC(=O)[C@H]2CC[C@H]3[C@@H]4CC=C5C=C(C(=O)O)CC[C@]5(C)[C@H]4CC[C@]23C)cc1 : 70.6

Inhibitory Activity reading for COc1cccc(C(C)(C)NC(=O)[C@H]2CC[C@H]3[C@@H]4CC=C5C=C(C(=O)O)CC[C@]5(C)[C@H]4CC[C@]23C)c1 : 77.9

Inhibitory Activity reading for COc1ccc(C(NC(=O)[C@H]2CC[C@H]3[C@@H]4CC=C5C=C(C(=O)O)CC[C@]5(C)[C@H]4CC[C@]23C)c2ccccc2)cc1 (stereo partly shown) : 84.9

Inhibitory Activity reading for CCC(CC)(NC(=O)[C@H]1CC[C@H]2[C@@H]3CC=C4C=C(C(=O)O)CC[C@]4(C)[C@H]3CC[C@]12C)c1ccccc1 : 74.0

Inhibitory Activity reading for C[C@]12CC[C@H]3[C@@H](CC=C4C=C(C(=O)O)CC[C@@]43C)[C@@H]1CC[C@@H]2C(=O)NC(c1ccc(F)cc1)c1ccc(F)cc1 : 81.7

Inhibitory Activity reading for CC(C)(C)NC(=O)[C@H]1CC[C@H]2[C@@H]3CC=C4C=C(C(=O)O)CC[C@]4(C)[C@H]3CC[C@]12C [Compound B, reference compound] : 28.1

Inhibitory Activity reading for C[C@]12CC[C@H]3[C@@H](CC=C4C=C(C(=O)O)CC[C@@]43C)[C@@H]1CC[C@@H]2C(=O)NC(c1ccccc1)c1ccccc1 : 70.6

Inhibitory Activity reading for Cc1ccc(C(C)(C)NC(=O)[C@H]2CC[C@H]3[C@@H]4CC=C5C=C(C(=O)O)CC[C@]5(C)[C@H]4CC[C@]23C)cc1 : 73.5

Inhibitory Activity reading for C[C@]12CC[C@H]3[C@@H](CC=C4C=C(C(=O)O)CC[C@@]43C)[C@@H]1CC[C@@H]2C(=O)N(Cc1ccccc1)Cc1ccccc1 : 79.3
